Origin of values: BindingDB's records for doi:10.1016/j.bmc.2011.12.011

# TEST SYSTEM: Perforin-1 (Homo sapiens)
# Sequence (P14222 whole entry): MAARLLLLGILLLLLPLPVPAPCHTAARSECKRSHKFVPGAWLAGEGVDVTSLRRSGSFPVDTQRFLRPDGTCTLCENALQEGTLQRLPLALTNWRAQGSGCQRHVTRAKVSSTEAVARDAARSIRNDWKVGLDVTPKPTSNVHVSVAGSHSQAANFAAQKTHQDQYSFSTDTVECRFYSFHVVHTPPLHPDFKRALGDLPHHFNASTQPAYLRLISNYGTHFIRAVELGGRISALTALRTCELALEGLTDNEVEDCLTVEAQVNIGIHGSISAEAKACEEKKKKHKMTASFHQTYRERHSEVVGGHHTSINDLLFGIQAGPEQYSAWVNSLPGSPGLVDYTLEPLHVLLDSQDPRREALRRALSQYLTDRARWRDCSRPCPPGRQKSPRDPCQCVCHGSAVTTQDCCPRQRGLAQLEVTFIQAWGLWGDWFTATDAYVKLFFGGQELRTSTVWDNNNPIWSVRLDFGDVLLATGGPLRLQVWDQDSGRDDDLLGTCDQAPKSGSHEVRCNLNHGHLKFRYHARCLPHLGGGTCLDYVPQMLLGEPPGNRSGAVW
# PROTOCOL: Inhibition of recombinant perforin-mediated lysis of Jurkat cells assessed as [51Cr] release preincubated with perforin for 30 mins followed by incubation with [51Cr]-labeled Jurkat cells by gamma counting
pIC50: −log10 of the molar value.
MEASURED PROPERTY: pIC50

Requested field: pIC50. Item: O=C(NCC=Cc1[nH]c(=S)[nH]c1O)c1ccc2c(c1)COC2=O < 4.70

###

# PROTOCOL: Inhibition of recombinant perforin-mediated lysis of Jurkat cells assessed as [51Cr] release preincubated with perforin for 30 mins followed by incubation with [51Cr]-labeled Jurkat cells by gamma counting
The label is fulfilled for IC50 below 0.8 µM and not fulfilled for IC50 equal to or exceeding 0.8 µM.

is_below(IC50, 0.8 µM) for O=C1OCc2cc(-c3cccs3)ccc21 ? not fulfilled

Does O=C1OCc2cc(-c3ccc(-c4cnco4)s3)ccc21 have IC50 strictly under 0.8 µM? not fulfilled

Confirm or reject: IC50 of O=C1NC(=S)NC1=Cc1csc(-c2ccc3c(c2)COC3=O)n1 lies strictly below 0.8 µM fulfilled

In the record for COC(=O)Cc1ccc(-c2ccc3c(c2)COC3=O)s1 , is IC50 less than 0.8 µM? not fulfilled

In the record for CN1C(=O)C(=Cc2ccc(-c3ccc4c(c3)COC4=O)s2)C(=O)N(C)C1=O , is IC50 less than 0.8 µM? not fulfilled

Input O=C1NC(=S)NC(=O)C1=Cc1ccc(-c2ccc3c(c2)COC3=O)s1 ; condition: IC50 strictly below 0.8 µM. Does it hold? fulfilled

Please let me know if O=C(O)Cc1ccc(-c2ccc3c(c2)COC3=O)s1 shows IC50 below 0.8 µM. not fulfilled

Please indicate whether the reported IC50 of O=C1NC(=O)C(=Cc2ccc(-c3ccc4c(c3)COC4=O)s2)S1 is strictly below 0.8 µM. not fulfilled

Just wondering, is IC50 of CC(=O)c1ccc(-c2ccc3c(c2)COC3=O)s1 below 0.8 µM? not fulfilled

Lab note: IC50 threshold 0.8 µM. Does this molecule come in strictly under it? O=C1NCCCC1=Cc1ccc(-c2ccc3c(c2)COC3=O)s1 not fulfilled

Record O=C1NC(=S)SC1=Cc1ccc(-c2ccc3c(c2)COC3=O)s1 : is its IC50 strictly below 0.8 µM? not fulfilled

Determine whether this molecule shows IC50 lower than 0.8 µM (ties excluded): O=C1NC(=S)NC1=Cc1cc2cc(-c3ccc4c(c3)COC4=O)ccc2o1 fulfilled

State whether 0.8 µM exceeds IC50 recorded for O=C1NC(=S)NC1=Cc1ccc(-c2ccc3c(c2)COC3=O)nc1 . not fulfilled

Consider the molecule O=C1NC(=S)NC1=Cc1cc(-c2ccc3c(c2)COC3=O)ns1 . Is its IC50 strictly less than 0.8 µM? not fulfilled

Please check: IC50 for O=C1NC(=S)NC1=Cc1ccc(-c2ccc3c(c2)COC3=O)[nH]1 , strictly under 0.8 µM or not? not fulfilled

Field: below-cutoff. Rule: recorded IC50 strictly less than 0.8 µM. Subject: O=Cc1ccc(-c2ccc3c(c2)COC3=O)s1 not fulfilled

Take the molecule O=C1NC(=S)NC1=Cc1nc(-c2ccc3c(c2)COC3=O)cs1 and say whether its IC50 is less than 0.8 µM. not fulfilled

Lab log: compare recorded IC50 with 0.8 µM; is it strictly lower for O=C1NC(=S)NC1=Cc1ccc2cc(-c3ccc4c(c3)COC4=O)ccc2n1 ? fulfilled
